- Tested on: A. baumannii clinical isolate LAC 12
- EXPERIMENT DESCRIPTION: Antibiotic susceptibility profile
- Type: cell-based, Acinetobacter baumannii
- Set-up: key: Resistance; Intermediate; Susceptible

COMPOUND: NC[C@H]1O[C@H](O[C@H]2[C@H](O)[C@@H](O[C@H]3O[C@H](CO)[C@@H](O)[C@H](N)[C@H]3O)[C@H](N)C[C@@H]2N)[C@H](N)C[C@@H]1O [TOB, Tobramycin]
Antibiotic susceptibility: S
//
COMPOUND: CN(C)[C@@H]1C(O)=C(C(N)=O)C(=O)[C@@]2(O)C(O)=C3C(=O)c4c(O)cccc4[C@@](C)(O)[C@H]3C[C@@H]12 [TET, Tetracycline]
Antibiotic susceptibility: R
//
COMPOUND: CCN1CCN(C(=O)N[C@@H](C(=O)N[C@@H]2C(=O)N3[C@@H]2SC(C)(C)[C@@H]3C(=O)O)c2ccccc2)C(=O)C1=O [PIP, Piperacillin]
Antibiotic susceptibility: R

Source listed as patent US20080090734A1.
